pIC50: −log10 of the molar value.
Compiled pIC50 measurements on Serine/threonine-protein kinase mTOR (Homo sapiens) taken from the literature.

Below, 5 molecules whose answers are already recorded.
- Smiles code: "Nc1ncc(-c2cc(C(F)(F)c3ccccc3)cc(N3CCOCC3)n2)cn1"
  pIC50: 6.25
- Smiles code: "CCn1cc(-n2c(=O)n(C)c3cnc4ccc(-c5cncc(NC)c5)cc4c32)c(C)n1"
  pIC50: 8.30
- Smiles code: "c1ccc(Cn2cnc3c(-c4ccc5nn[nH]c5c4)nc(N4CCOCC4)nc32)cc1"
  pIC50: "5.30 to 6.00"
- Smiles code: "CS(=O)(=O)N1CCN(C(=O)Cn2cnc3c(-c4cccc(O)c4)nc(N4CCOCC4)nc32)CC1"
  pIC50: "> 6.00"
- Smiles code: "Oc1cccc(-c2nc(N3CCOCC3)nc3c2ncn3CCOc2ccccc2)c1"
  pIC50: "> 6.00"

Enquiry: Give recorded pIC50. O=c1[nH]c2ncc(-c3ccc4ncccc4c3)cc2n1CC1CCOCC1
Return: > 7.30

Enquiry: Give reported pIC50 value for CO[C@H]1CC[C@@H](Cn2c(=O)[nH]c3ncc(-c4cnc5[nH]cc(Cl)c5c4)cc32)CC1
Return: > 7.30

Enquiry: Supply reported pIC50 belonging to this molecule: CS(=O)(=O)N1CCN(c2nc3c(N4CCOCC4)nc(-c4cnc(N)nc4)nc3n2[C@H]2CCN(S(C)(=O)=O)C2)CC1
Return: 7.00 to 7.52

====

Several reports have described IC50 for Serine/threonine-protein kinase mTOR (Homo sapiens); a selection of those results is presented here.

# annotated cases, reported IC50 shown
- Compound: "C[C@@H]1COCCN1c1nc(-c2cnc(N)nc2)nc2c(OCCF)cc(-c3cccc(NS(=O)(=O)CCCF)c3F)cc12"
  IC50: "100 to 1000 nM"
- Compound: "Cc1ccc(-c2ccc3c(N4CCOCC4)nc(-c4ccc(NC(=O)Nc5ccc(C(=O)N6CCN(C)CC6)cc5)cc4)nc3c2)o1"
  IC50: "50 to 200 nM"
- Compound: "CN(C)C1CCN(C(=O)c2ccc(NC(=O)Nc3ccc(-c4nc(N5CCOCC5)c5ccc(-c6cncnc6)cc5n4)cc3)cc2)C1 (stereo in doubt)"
  IC50: "< 50 nM"

Now take the following compound into account.
Enquiry: Report IC50 under test system Serine/threonine-protein kinase mTOR (Homo sapiens) for CNc1ncc(-c2ccc3ncc4c(c3c2)n(-c2cn(C)nc2Cl)c(=O)n4C)cc1C .
Return: < 3 nM

====

Before we begin, note that these IC50 values for Serine/threonine-protein kinase mTOR (Homo sapiens) originate from several publications.

Enquiry: Under Serine/threonine-protein kinase mTOR (Homo sapiens): report IC50 of CCCS(=O)(=O)Nc1cccc(-c2cc(OC)c3nc(-n4c(C(F)F)nc5ccccc54)nc(N4CCOCC4)c3c2)c1F .
Return: 100 to 1000 nM

Enquiry: Please indicate recorded IC50 of COc1ncc(-c2ccc3ncc4c(c3c2)n(-c2cn(C)nc2C)c(=O)n4C)cc1C(N)=O measured with Serine/threonine-protein kinase mTOR (Homo sapiens).
Return: 10 nM

Enquiry: Please report IC50 with Serine/threonine-protein kinase mTOR (Homo sapiens) for item NOCCOCCOCCOCCC(=O)N1CCN(c2cnc3ccc(-c4cnc(Cl)c(NS(=O)(=O)c5ccc(F)cc5)c4)cc3n2)CC1 .
Return: 6.77 nM
